experiment.summary: Rat serum pharmacokinetics after 1.5-hour IV infusion
Type: in vivo
run.conditions: 1.5-hour IV infusion in 0.9% saline, dose (mg/kg) differs per compound, two-compartment model, read-out: Clearance (free drug clearance) (converted)
Label rule, in plain words: clearance of 70 mL/min/kg and up is 1 (yes), under 70 mL/min/kg is 0 (no).

See these solved cases before continuing.
>  <structure.string>
Cl.Cl.Cl.Cl.NCCN(CCN)C(=O)CC[C@H](N)C(=O)N[C@H](Cc1ccc(OC(F)(F)F)cc1)C(=O)Nc1cnc2ccccc2c1

>  <label.class>
0 (no)

$$$$
>  <structure.string>
NCCN(CCN)C(=O)C[C@H](N)C(=O)N[C@@H](CCc1ccccc1)C(=O)NCc1c(Cl)cccc1Cl

>  <label.class>
0 (no)

$$$$
>  <structure.string>
Cc1cc(C)c(NC(=O)[C@H](CCc2ccccc2)NC(=O)[C@@H](N)CC(=O)N(CCN)CCN)c(C)c1

>  <label.class>
0 (no)

$$$$
>  <structure.string>
CC(C)c1ccc(NC(=O)[C@H](CCc2ccccc2)NC(=O)[C@@H](N)CC(=O)N(CCN)CCN)cc1

>  <label.class>
1 (yes)

$$$$

Is clearance at least 70 mL/min/kg? Consider NCCN(CCN)C(=O)C[C@H](N)C(=O)N[C@@H](CCc1ccccc1)C(=O)NCc1ccc(OC2CCOCC2)cc1 1 (yes)

Is clearance at least 70 mL/min/kg? Consider NCCN(CCN)C(=O)C[C@H](N)C(=O)N[C@@H](CCc1ccccc1)C(=O)NCc1ccc(F)c(C(F)(F)F)c1 0 (no)

Is clearance at least 70 mL/min/kg? Consider NCCN(CCN)C(=O)C[C@H](N)C(=O)N[C@@H](CCc1ccccc1)C(=O)NCc1ccc(OC(F)(F)F)cc1 0 (no)

Is clearance at least 70 mL/min/kg? Consider Cc1ccc(C)c(CNC(=O)[C@H](CCc2ccccc2)NC(=O)[C@@H](N)CC(=O)N(CCN)CCN)c1 0 (no)

====

experiment.summary: Rat serum pharmacokinetics after 1.5-hour IV infusion
Format: in vivo
run.conditions: 1.5-hour IV infusion in 0.9% saline, dose (mg/kg) differs per compound, two-compartment model, read-out: Clearance (free drug clearance) (converted)
quantity: clearance (mL/min/kg)
Express it in mL/min/kg; write the number only.

>  <molecule>
NCCN(CCN)C(=O)C[C@H](N)C(=O)N[C@@H](CCc1ccccc1)C(=O)NCc1ccc(Oc2ccccn2)cc1 [Compound 110]

>  <quantity>
clearance

>  <test.result>
91.2

$$$$
>  <molecule>
Cl.Cl.Cl.Cl.NCCN(CCN)C(=O)C[C@H](N)C(=O)N[C@H](Cc1ccc(C(F)(F)F)cc1)C(=O)Nc1cnc2ccccc2c1 [Compound 359]

>  <quantity>
clearance

>  <test.result>
48.2

$$$$
>  <molecule>
COc1cc(OC(F)(F)F)ccc1CNC(=O)[C@H](CCc1ccccc1)NC(=O)[C@@H](N)CC(=O)N(CCN)CCN [Compound 233]

>  <quantity>
clearance

>  <test.result>
118

$$$$
>  <molecule>
Cl.Cl.Cl.Cl.NCCN(CCN)C(=O)C[C@H](N)C(=O)N[C@H](C(=O)Nc1cnc2ccccc2c1)C(O)c1ccc(C(F)(F)F)cc1 (some centres unmarked) [Compound 169]

>  <quantity>
clearance

>  <test.result>
31.3

$$$$
>  <molecule>
NCCN(CCN)C(=O)C[C@H](N)C(=O)N[C@@H](CCc1ccccc1)C(=O)Nc1cc(Cl)c(Cl)cc1Cl [Compound 87]

>  <quantity>
clearance

>  <test.result>
64.3

$$$$
>  <molecule>
NCCN(CCN)C(=O)C[C@H](N)C(=O)NCC(=O)N(Cc1ccc(C(F)(F)F)cc1)c1cnc2ccccc2c1 [Compound 357]

>  <quantity>
clearance

>  <test.result>
145

$$$$
>  <molecule>
NCCN(CCN)C(=O)C[C@H](N)C(=O)N[C@@H](CCc1ccccc1)C(=O)Nc1cccc(C(F)(F)F)c1 [Compound 90]

>  <quantity>
clearance

>  <test.result>
103

$$$$
>  <molecule>
CC(C)Oc1ccc(NC(=O)[C@H](CCc2ccccc2)NC(=O)[C@@H](N)CC(=O)N(CCN)CCN)cc1 [Compound 214]

>  <quantity>
clearance

>  <test.result>
92.2

$$$$
>  <molecule>
Cl.Cl.Cl.Cl.NCCN(CCN)C(=O)C[C@H](N)C(=O)N[C@H](CCc1ccccc1)C(=O)Nc1cnc2ccccc2c1 [Compound 48]

>  <quantity>
clearance

>  <test.result>
26

$$$$
>  <molecule>
Cc1cc(CNC(=O)[C@H](CCc2ccccc2)NC(=O)[C@@H](N)CC(=O)N(CCN)CCN)c(C(F)(F)F)o1 [Compound 67]

>  <quantity>
clearance

>  <test.result>
51.7

$$$$

Reported clearance, molecule CCOc1ccc(NC(=O)[C@H](CCc2ccccc2)NC(=O)[C@@H](N)CC(=O)N(CCN)CCN)cc1 [Compound 85] : ____ 50

Reported clearance, molecule Cl.Cl.Cl.Cl.NCCN(CCN)C(=O)CC[C@H](N)C(=O)N[C@H](CCc1ccccc1)C(=O)Nc1cnc2ccccc2c1 [Compound 47] : ____ 28.3

Reported clearance, molecule NCCN(CCN)C(=O)C[C@H](N)C(=O)N[C@@H](CCc1ccccc1)C(=O)Nc1cnc2ccccc2c1 [Compound 2] : ____ 217

Reported clearance, molecule CCOc1c(F)cc(NC(=O)[C@H](CCc2ccccc2)NC(=O)[C@@H](N)CC(=O)N(CCN)CCN)cc1F.Cl.Cl.Cl [Compound 352] : ____ 177

====

experiment.summary: Rat serum pharmacokinetics after 1.5-hour IV infusion
Type: in vivo
run.conditions: 1.5-hour IV infusion in 0.9% saline, dose (mg/kg) differs per compound, two-compartment model
We begin with a simple list: items and their reported Cmax.
Please answer using the number first and the unit second.

# count of solved cases: 3
>  <compound>
Cl.Cl.Cl.Cl.NCCN(CCN)C(=O)CC[C@H](N)C(=O)N[C@H](CCc1ccccc1)C(=O)Nc1cnc2ccccc2c1 [Compound 47]

>  <quantity>
Cmax

>  <test.result>
8100 ng/mL

$$$$
>  <compound>
Cl.Cl.Cl.Cl.N[C@@H](CCC(=O)N1C[C@H](N)[C@@H](N)C1)C(=O)N[C@H](Cc1ccc(C(F)(F)F)cc1)C(=O)Nc1cnc2ccccc2c1 [Compound 33]

>  <quantity>
Cmax

>  <test.result>
3980 ng/mL

$$$$
>  <compound>
CC(C)Oc1ccc(NC(=O)[C@H](CCc2ccccc2)NC(=O)[C@@H](N)CC(=O)N(CCN)CCN)c(F)c1 [Compound 215]

>  <quantity>
Cmax

>  <test.result>
690 ng/mL

$$$$

We next turn to a different compound, shown below.
Reported Cmax, compound Cl.Cl.Cl.Cl.NCCN(CCN)C(=O)C[C@H](N)C(=O)N[C@H](Cc1ccc(C(F)(F)F)cc1)C(=O)Nc1cnc2ccccc2c1 [Compound 359] : ____ 5030 ng/mL

====

experiment.summary: Rat serum pharmacokinetics after 1.5-hour IV infusion
Assay type: in vivo
run.conditions: 1.5-hour IV infusion in 0.9% saline, dose (mg/kg) differs per compound, two-compartment model, read-out: Clearance (free drug clearance) (converted)
We begin with a simple list: items and their reported clearance.
Express it in mL/min/kg; write the number only.

>  <structure.string>
Cl.Cl.Cl.Cl.NCCN(CCN)CCC[C@H](N)C(=O)N[C@H](CCc1ccccc1)C(=O)Nc1cnc2ccccc2c1

>  <quantity>
clearance

>  <units.of.measure>
mL/min/kg

>  <test.result>
13.5

$$$$

Reported clearance, compound Cc1ccc(NC(=O)[C@H](CCc2ccccc2)NC(=O)[C@@H](N)CC(=O)N(CCN)CCN)cc1 : ____ 63.2

Reported clearance, compound CC(C)Oc1ccc(CNC(=O)[C@H](CCc2ccccc2)NC(=O)[C@@H](N)CC(=O)N(CCN)CCN)cc1 : ____ 70.8

Reported clearance, compound CCCc1ccccc1NC(=O)[C@H](CCc1ccccc1)NC(=O)[C@@H](N)CC(=O)N(CCN)CCN : ____ 78.5

====

experiment.summary: Rat serum pharmacokinetics after 1.5-hour IV infusion
Assay type: in vivo
run.conditions: 1.5-hour IV infusion in 0.9% saline, dose (mg/kg) differs per compound, two-compartment model
We begin with a simple list: items and their reported Cmax.
Please answer using the number first and the unit second.

# count of solved cases: 5
>  <structure.string>
Cl.Cl.Cl.Cl.NCCN(CCN)CCC[C@H](N)C(=O)N[C@H](CCc1ccccc1)C(=O)Nc1cnc2ccccc2c1

>  <test.result>
4 µg/mL

$$$$
>  <structure.string>
COc1cc(OC(F)(F)F)ccc1CNC(=O)[C@H](CCc1ccccc1)NC(=O)[C@@H](N)CC(=O)N(CCN)CCN

>  <test.result>
4.92 µg/mL

$$$$
>  <structure.string>
NCCN(CCN)C(=O)C[C@H](N)C(=O)N[C@@H](CCc1ccccc1)C(=O)NCc1ccc(Oc2ccccn2)cc1

>  <test.result>
1.89 µg/mL

$$$$
>  <structure.string>
Cc1ccc(NC(=O)[C@H](CCc2ccccc2)NC(=O)[C@@H](N)CC(=O)N(CCN)CCN)cc1

>  <test.result>
2.96 µg/mL

$$$$
>  <structure.string>
Cl.Cl.Cl.Cl.NCCN(CCN)C(=O)CC[C@H](N)C(=O)N[C@H](Cc1ccc(OC(F)(F)F)cc1)C(=O)Nc1cnc2ccccc2c1

>  <test.result>
21.9 µg/mL

$$$$

Reported Cmax, molecule NCCN(CCN)C(=O)C[C@@H](N)C(=O)N[C@H](CCc1ccccc1)C(=O)Nc1cnc2ccccc2c1 : ____ 2.68 µg/mL

Reported Cmax, molecule NCCN(CCN)C(=O)C[C@H](N)C(=O)N[C@@H](CCc1ccccc1)C(=O)Nc1cccc(C(F)(F)F)c1 : ____ 1.22 µg/mL

Where do the numbers come from? From patent US8178490B2.
